- TGT: Platelet-derived growth factor receptor alpha (Homo sapiens) (UniProt P16234)
- Sequence (P16234 whole entry): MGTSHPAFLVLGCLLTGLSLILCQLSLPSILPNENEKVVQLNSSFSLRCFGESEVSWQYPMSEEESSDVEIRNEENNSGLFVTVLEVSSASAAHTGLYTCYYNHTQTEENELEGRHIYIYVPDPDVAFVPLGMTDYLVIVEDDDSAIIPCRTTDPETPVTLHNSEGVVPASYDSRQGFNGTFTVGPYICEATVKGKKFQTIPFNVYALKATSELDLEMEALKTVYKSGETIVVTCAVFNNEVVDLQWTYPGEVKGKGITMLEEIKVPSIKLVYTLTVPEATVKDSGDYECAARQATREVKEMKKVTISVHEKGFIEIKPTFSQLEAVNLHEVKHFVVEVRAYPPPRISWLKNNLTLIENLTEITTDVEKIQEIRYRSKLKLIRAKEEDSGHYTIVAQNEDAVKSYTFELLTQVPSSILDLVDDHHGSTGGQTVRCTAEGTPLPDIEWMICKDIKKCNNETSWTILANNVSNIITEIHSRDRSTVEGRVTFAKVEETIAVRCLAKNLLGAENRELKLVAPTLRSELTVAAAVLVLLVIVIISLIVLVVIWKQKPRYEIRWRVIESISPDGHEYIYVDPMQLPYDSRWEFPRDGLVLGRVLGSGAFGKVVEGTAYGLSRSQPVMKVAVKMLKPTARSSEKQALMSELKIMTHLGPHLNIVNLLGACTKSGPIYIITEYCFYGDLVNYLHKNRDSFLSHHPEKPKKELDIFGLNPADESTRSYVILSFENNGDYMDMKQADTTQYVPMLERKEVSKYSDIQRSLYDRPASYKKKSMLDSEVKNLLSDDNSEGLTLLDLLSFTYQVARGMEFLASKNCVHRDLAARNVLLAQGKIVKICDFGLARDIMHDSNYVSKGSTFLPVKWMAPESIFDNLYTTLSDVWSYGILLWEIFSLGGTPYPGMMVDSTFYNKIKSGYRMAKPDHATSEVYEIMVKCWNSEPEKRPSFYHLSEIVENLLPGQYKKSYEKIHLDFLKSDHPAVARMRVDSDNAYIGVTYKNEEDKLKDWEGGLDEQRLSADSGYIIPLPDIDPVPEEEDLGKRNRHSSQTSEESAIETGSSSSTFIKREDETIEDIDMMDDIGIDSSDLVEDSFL
- CONDITION_CONTEXT: at 0.1 µM
- Description: GSK_PKIS: PDGFRA mean inhibition at 0.1 uM [Nanosyn]
READOUT_KIND: inhibition (%)
Reply with just the number (in %).

CN1CCC(C(=O)Nc2n[nH]c3nnc(-c4ccccc4)cc23)CC1 : 5.74

Which inhibition value is on record for `NC(=O)c1ccc(-c2nc(-c3ccccn3)c(-c3ccc4c(c3)OCO4)[nH]2)cc1` ? 6.2

Which inhibition value is on record for `COc1cc2ncn(-c3cc(OCc4ccccc4Cl)c(C(N)=O)s3)c2cc1OC` ? 46.7

* * *

- TGT: Ribosomal protein S6 kinase alpha-4 (Homo sapiens) (UniProt O75676)
- Sequence (O75676 whole entry, looked up): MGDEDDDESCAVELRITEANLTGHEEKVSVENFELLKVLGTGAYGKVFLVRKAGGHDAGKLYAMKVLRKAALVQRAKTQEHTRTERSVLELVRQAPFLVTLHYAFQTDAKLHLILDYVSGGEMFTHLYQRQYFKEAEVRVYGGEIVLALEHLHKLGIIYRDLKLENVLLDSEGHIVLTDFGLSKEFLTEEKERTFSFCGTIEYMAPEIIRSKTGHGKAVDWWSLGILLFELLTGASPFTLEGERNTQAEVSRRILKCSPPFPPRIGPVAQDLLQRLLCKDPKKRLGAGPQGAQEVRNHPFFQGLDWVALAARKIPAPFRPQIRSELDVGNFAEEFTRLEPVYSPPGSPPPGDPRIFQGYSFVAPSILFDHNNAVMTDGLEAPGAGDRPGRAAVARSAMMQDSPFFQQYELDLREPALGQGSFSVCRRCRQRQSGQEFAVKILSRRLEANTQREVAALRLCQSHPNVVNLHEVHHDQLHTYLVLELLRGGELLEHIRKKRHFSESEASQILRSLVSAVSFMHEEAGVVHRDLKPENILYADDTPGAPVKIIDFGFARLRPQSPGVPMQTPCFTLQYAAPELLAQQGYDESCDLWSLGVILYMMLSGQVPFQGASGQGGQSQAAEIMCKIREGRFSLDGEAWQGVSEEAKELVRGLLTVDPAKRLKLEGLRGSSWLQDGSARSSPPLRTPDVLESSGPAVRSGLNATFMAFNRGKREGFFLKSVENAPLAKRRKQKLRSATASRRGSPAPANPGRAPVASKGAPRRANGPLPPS
- CONDITION_CONTEXT: at 1 µM
Listed compounds paired with reported inhibition
Reply with just the number (in %).

Some entries whose results are on file:
O=C1NC(=O)C(N2CCc3ccccc32)=C1c1ccc(Cl)cc1 : 4.02
NCc1ccc(-c2nc(-c3ccc(Cl)c(O)c3)c(-c3ccncc3)[nH]2)cc1 : 2.82

Which inhibition value is on record for `[O-][S+]1CCN(Cc2ccc(-c3ccc4ncnc(Nc5ccc(OCc6ccccc6)c(F)c5)c4c3)o2)CC1` ? 2.42

Which inhibition value is on record for `NS(=O)(=O)c1cccc(-c2ccc3c(NC(=O)C4CC4)n[nH]c3c2)c1` ? 0.37

Which inhibition value is on record for `COc1cccc(-n2ncc3c(N/N=C/c4cccc(F)c4)ncnc32)c1` ? 2.89

Which inhibition value is on record for `CCn1c(-c2nonc2N)nc2c(N3CCCC3)nccc21` ? 3.67

Which inhibition value is on record for `Cc1cc(O)cc(C)c1/C=C/c1cncc(-c2nn[nH]n2)c1` ? 2.78

Which inhibition value is on record for CC1=C(C(=O)Nc2ccc3[nH]ncc3c2)C(c2ccc(Cl)c(Cl)c2)CC(=O)N1 (stereo not given) ? 39.1

Which inhibition value is on record for `c1cnn2ncc(-c3ccnc(Nc4ccc5c(c4)OCCO5)n3)c2c1` ? 6.51

Which inhibition value is on record for `CNC(=O)c1cncc(/C=C/c2c(Cl)cccc2Cl)c1` ? 3.75

Which inhibition value is on record for `NC(=O)c1cccc(Nc2nccc(Nc3cccc4[nH]ncc34)n2)c1` ? 1.24

Which inhibition value is on record for `NS(=O)(=O)c1ccc(N/N=C2\C(=O)Nc3ccc(C(=O)NCCc4c[nH]cn4)cc32)cc1` ? 18.7

Which inhibition value is on record for `COc1ccc(-c2coc3ncnc(N)c23)cc1` ? 3.84

Which inhibition value is on record for `CS(=O)(=O)CCNCc1ccc(-c2ccc3ncnc(Nc4ccc(OCc5cccc(F)c5)c(C(F)(F)F)c4)c3c2)o1` ? 2.44

Which inhibition value is on record for `COc1cc(C)c(NC(=O)CN(C)C)cc1Nc1nc(Nc2cccc(F)c2C(N)=O)c2cc[nH]c2n1` ? 2.07

* * *

Listed compounds paired with reported inhibition
- TGT: Ephrin type-A receptor 4 (Homo sapiens) (UniProt P54764)
- Sequence (P54764 whole entry): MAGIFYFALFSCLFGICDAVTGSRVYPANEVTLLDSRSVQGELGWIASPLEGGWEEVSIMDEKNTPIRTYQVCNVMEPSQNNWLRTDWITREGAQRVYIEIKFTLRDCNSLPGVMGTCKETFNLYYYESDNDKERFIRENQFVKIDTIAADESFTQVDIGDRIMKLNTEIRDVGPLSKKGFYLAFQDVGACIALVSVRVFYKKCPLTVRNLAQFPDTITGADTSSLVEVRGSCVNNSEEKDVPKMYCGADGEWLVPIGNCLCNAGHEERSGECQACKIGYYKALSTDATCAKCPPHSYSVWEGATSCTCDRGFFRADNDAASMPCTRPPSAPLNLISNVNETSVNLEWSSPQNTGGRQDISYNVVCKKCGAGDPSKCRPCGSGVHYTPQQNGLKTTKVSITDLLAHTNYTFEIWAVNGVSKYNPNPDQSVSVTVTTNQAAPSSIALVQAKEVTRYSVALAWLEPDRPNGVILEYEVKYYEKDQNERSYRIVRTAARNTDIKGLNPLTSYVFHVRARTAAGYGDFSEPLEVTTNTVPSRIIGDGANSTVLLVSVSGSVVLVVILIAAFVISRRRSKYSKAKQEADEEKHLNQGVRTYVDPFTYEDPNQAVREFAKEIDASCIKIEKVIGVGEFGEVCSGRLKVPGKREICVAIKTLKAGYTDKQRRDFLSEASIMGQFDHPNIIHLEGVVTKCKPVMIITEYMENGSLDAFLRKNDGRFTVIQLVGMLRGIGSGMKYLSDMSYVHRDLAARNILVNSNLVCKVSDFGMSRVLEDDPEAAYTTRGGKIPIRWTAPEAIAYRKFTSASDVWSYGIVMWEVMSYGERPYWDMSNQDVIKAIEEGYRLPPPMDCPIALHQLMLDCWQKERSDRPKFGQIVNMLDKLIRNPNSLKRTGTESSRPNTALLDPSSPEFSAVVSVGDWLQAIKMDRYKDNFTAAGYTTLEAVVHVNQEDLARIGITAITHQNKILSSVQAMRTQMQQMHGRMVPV
- CONDITION_CONTEXT: at 0.1 µM
Reply with just the number (in %).

Some entries whose results are on file:
CCc1cccc(NC(=O)Nc2ccc(Oc3ccc4nc(NC(=O)OC)[nH]c4c3)cc2)c1 : 52.3
CC(=O)Nc1cccc(C#Cc2cncnc2Nc2ccc(OCc3cccc(F)c3)c(Cl)c2)n1 : 1.13
COc1ccc(COc2ccc(Cc3cnc(N)nc3N)cc2OC)cc1 : 1.25
NC(=O)c1cccc(Nc2nccc(Nc3cccc4[nH]ncc34)n2)c1 : 31

Okay, next one:
Which inhibition value is on record for COc1ccc2cc(-c3c(-c4ccncc4)nc(-c4ccc([S+](C)[O-])cc4)n3C)ccc2c1 (stereo not given) ? -2.82

* * *

- TGT: Mitogen-activated protein kinase kinase kinase kinase 4 (Homo sapiens) (UniProt O95819)
- Sequence (O95819 2-1239 limits assumed): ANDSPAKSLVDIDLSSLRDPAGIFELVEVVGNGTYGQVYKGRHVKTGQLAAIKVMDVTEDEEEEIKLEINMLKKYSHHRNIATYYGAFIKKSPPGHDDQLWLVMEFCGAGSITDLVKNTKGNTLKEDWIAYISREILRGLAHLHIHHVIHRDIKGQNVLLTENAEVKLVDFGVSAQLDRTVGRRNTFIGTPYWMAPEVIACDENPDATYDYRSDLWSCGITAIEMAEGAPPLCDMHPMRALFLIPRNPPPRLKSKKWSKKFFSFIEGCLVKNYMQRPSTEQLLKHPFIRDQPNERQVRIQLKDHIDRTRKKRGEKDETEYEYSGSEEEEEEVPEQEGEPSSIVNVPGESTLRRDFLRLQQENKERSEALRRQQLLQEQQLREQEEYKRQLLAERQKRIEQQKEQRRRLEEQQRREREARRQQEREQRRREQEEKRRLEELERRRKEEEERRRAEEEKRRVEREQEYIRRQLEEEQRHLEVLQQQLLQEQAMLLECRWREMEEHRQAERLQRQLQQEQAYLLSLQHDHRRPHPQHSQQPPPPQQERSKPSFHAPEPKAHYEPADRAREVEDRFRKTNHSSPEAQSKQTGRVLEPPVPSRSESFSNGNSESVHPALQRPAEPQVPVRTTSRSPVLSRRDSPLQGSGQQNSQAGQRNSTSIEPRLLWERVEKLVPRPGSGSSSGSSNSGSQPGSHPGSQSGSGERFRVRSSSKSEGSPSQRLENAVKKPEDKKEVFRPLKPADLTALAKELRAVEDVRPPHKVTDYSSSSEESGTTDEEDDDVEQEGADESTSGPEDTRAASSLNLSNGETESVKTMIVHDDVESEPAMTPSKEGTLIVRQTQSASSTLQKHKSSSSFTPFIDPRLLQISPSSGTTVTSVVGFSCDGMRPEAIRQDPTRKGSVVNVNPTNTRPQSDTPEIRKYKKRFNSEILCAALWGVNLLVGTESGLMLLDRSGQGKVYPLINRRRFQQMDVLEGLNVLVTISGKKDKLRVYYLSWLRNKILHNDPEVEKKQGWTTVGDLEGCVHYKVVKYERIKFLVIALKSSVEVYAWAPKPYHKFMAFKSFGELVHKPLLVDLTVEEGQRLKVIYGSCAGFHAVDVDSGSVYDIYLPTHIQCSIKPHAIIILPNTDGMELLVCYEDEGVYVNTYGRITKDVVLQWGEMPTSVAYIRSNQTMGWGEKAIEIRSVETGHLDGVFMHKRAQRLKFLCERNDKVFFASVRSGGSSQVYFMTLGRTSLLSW
- CONDITION_CONTEXT: at 0.1 µM
- Description: GSK_PKIS: MAP4K4 mean inhibition at 0.1 uM [Nanosyn]
READOUT_KIND: inhibition
Please provide the amount together with its unit, number first.

Some entries whose results are on file:
CC1=C(C(=O)Nc2ccc3[nH]ncc3c2)C(c2ccc(F)cc2)NC(=O)N1 (stereo not given) : 7.49%
O=C1NC(=O)C(c2ccc(Cl)cc2)=C1Nc1ccc(Cl)c(C(=O)O)c1 : -1.56%
Cn1cc(C=C2C(=O)Nc3cccnc32)c2ccccc21 : 6.66%

Request body: readout inhibition, system Mitogen-activated protein kinase kinase kinase kinase 4 (Homo sapiens) (UniProt O95819), query `CCn1c(-c2nonc2N)nc2cncc(C(=O)N3CC[C@H](N)C3)c21` . Return the value. 5.42%

Request body: readout inhibition, system Mitogen-activated protein kinase kinase kinase kinase 4 (Homo sapiens) (UniProt O95819), query `[O-][S+]1CCN(Cc2ccc(-c3ccc4ncnc(Nc5ccc(OCc6ccccc6)c(F)c5)c4c3)o2)CC1` . Return the value. 3.5%

Request body: readout inhibition, system Mitogen-activated protein kinase kinase kinase kinase 4 (Homo sapiens) (UniProt O95819), query `COc1ccc(-c2nn3ncccc3c2-c2ccnc(Nc3ccc(Cl)c(C(F)(F)F)c3)n2)cc1` . Return the value. 3.81%

Request body: readout inhibition, system Mitogen-activated protein kinase kinase kinase kinase 4 (Homo sapiens) (UniProt O95819), query `CS(=O)(=O)CCNCc1ccc(-c2ccc3ncnc(Nc4ccc(OCc5cccc(F)c5)c(C(F)(F)F)c4)c3c2)o1` . Return the value. 3.22%

Request body: readout inhibition, system Mitogen-activated protein kinase kinase kinase kinase 4 (Homo sapiens) (UniProt O95819), query `COc1ccc(COc2ccc(Cc3cnc(N)nc3N)cc2OC)cc1` . Return the value. 0.34%

Request body: readout inhibition, system Mitogen-activated protein kinase kinase kinase kinase 4 (Homo sapiens) (UniProt O95819), query `c1cnn2ncc(-c3ccnc(Nc4ccc5c(c4)OCCO5)n3)c2c1` . Return the value. 11.3%

Request body: readout inhibition, system Mitogen-activated protein kinase kinase kinase kinase 4 (Homo sapiens) (UniProt O95819), query `NS(=O)(=O)c1ccc(N/N=C2\C(=O)Nc3ccc(C(=O)NCCc4c[nH]cn4)cc32)cc1` . Return the value. 10.5%

* * *

- TGT: Inhibitor of nuclear factor kappa-B kinase subunit epsilon (Homo sapiens)
- CONDITION_CONTEXT: at 1 µM
READOUT_KIND: inhibition (%)
Reply with just the number (in %).

Some entries whose results are on file:
CCc1cccc(NC(=O)Nc2ccc(Oc3ccc4nc(NC(=O)OC)[nH]c4c3)cc2)c1 : 3.32
CCn1c(-c2nonc2N)nc2cncc(C(=O)N3CCNCC3)c21 : 7.71
CCN1CCC(CC(=O)Nc2n[nH]c3nc(-c4cccs4)c(Br)cc23)CC1 : -3.61

Which inhibition value is on record for `COc1ccccc1Nc1ncc(-c2ccccc2)o1` ? 7.83

Which inhibition value is on record for `Nc1ncnc2occ(-c3ccc(NC(=O)Nc4cc(C(F)(F)F)cc(C(F)(F)F)c4)cc3)c12` ? 5.33

* * *

- TGT: Calcium/calmodulin-dependent protein kinase type 1D (Homo sapiens) (UniProt Q8IU85)
- Sequence (Q8IU85 whole entry, looked up): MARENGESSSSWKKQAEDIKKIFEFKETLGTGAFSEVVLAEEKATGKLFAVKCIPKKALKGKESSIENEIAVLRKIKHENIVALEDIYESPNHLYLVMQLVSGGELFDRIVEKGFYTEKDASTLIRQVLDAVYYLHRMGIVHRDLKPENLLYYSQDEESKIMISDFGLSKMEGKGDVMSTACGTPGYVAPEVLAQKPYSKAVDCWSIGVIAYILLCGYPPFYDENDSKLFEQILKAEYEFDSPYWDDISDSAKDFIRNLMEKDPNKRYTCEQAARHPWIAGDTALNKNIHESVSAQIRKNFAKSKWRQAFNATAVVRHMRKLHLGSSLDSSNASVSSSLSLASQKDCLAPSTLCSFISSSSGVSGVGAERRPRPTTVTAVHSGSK
- CONDITION_CONTEXT: at 1 µM
READOUT_KIND: inhibition (%)
Reply with just the number (in %).

CS(=O)(=O)CCNCc1ccc(-c2ccc3ncnc(Nc4ccc(OCc5cccc(F)c5)c(C(F)(F)F)c4)c3c2)o1 : 0.72

Which inhibition value is on record for `Fc1cccc(COc2ccc(Nc3ncnc4sc(-c5cccs5)cc34)cc2Cl)c1` ? 0.18

Which inhibition value is on record for `CNC(=O)c1cncc(/C=C/c2c(Cl)cccc2Cl)c1` ? 2.1

Which inhibition value is on record for `CS(=O)(=O)Nc1ccc(N/C=C2\C(=O)Nc3ccccc32)cc1` ? 0.24

* * *

- TGT: Serine/threonine-protein kinase PAK 3 (Homo sapiens)
- CONDITION_CONTEXT: at 1 µM
READOUT_KIND: inhibition (%)
Reply with just the number (in %).

Which inhibition value is on record for `COc1cc(C=NNc2ncnc3c2cnn3-c2ccccc2)ccc1O` ? 2.83

Which inhibition value is on record for `NS(=O)(=O)c1cccc(-c2ccc3c(NC(=O)C4CC4)n[nH]c3c2)c1` ? -0.67

Which inhibition value is on record for `COc1cc2ncn(-c3cc(OCc4ccccc4C(F)(F)F)c(C(N)=O)s3)c2cc1OC` ? 5.02

Which inhibition value is on record for `COc1ccc(-c2ccncc2)cc1C(N)=O` ? 10.3

* * *

Listed molecules paired with reported inhibition
- TGT: Serine/threonine-protein kinase PAK 1 (Homo sapiens)
- CONDITION_CONTEXT: at 1 µM

Some entries whose results are on file:
CCc1cccc(NC(=O)Nc2ccc(Oc3ccc4nc(NC(=O)OC)[nH]c4c3)cc2)c1 : 2.79%
CC(=O)Nc1cccc(C#Cc2cncnc2Nc2ccc(OCc3cccc(F)c3)c(Cl)c2)n1 : 0.67%

Which inhibition value is on record for `COc1cc(C)c(NC(=O)CN(C)C)cc1Nc1nc(Nc2cccc(F)c2C(N)=O)c2cc[nH]c2n1` ? 3.36%

Which inhibition value is on record for `Cc1cc(O)cc(C)c1/C=C/c1cncc(-c2nn[nH]n2)c1` ? 7.1%

Which inhibition value is on record for `CS(=O)(=O)Nc1ccc(N/C=C2\C(=O)Nc3ccccc32)cc1` ? -3.06%

Which inhibition value is on record for `NCc1ccc(-c2nc(-c3ccc(Cl)c(O)c3)c(-c3ccncc3)[nH]2)cc1` ? 2.83%

Which inhibition value is on record for `COc1cc2ncn(-c3cc(OCc4ccccc4Cl)c(C(N)=O)s3)c2cc1OC` ? 1.43%

Which inhibition value is on record for CC1=C(C(=O)Nc2ccc3[nH]ncc3c2)C(c2ccc3ccccc3c2)CC(=O)N1 (stereo not drawn) ? 4.95%
